For each record, write down the corresponding TGI.
System: OVCAR-3 ovarian
Assay: NCI tumour cell line growth inhibition, 48 h

compound	TGI
NS(=O)(=O)c1nnc(NC(=S)NC(=O)Nc2ccc(Cl)c(Cl)c2)s1	62 µM
COC1(OC)c2occc2C(=N)c2ccc(=O)oc21	> 100 µM
CN=c1sc2c(n1C)C(=O)c1ccccc1C2=O	11.3 µM
COc1ccc2c(C(=O)O)cc3ccccc3c2c1OC	32.7 µM
CSCCC(C(=O)O)N(C)C (stereo unspecified)	> 100 µM
CCN(CC)c1ccc2nc3ccc(=[N+](CC)CC)cc-3oc2c1	0.362 µM

Respectfully, I request TGI for each entry included below.
1. O=S(=O)(/N=C(\NO)Nc1ccc(Cl)cc1)c1cc(C(F)(F)F)cc(C(F)(F)F)c1
2. Cc1noc(NC(=O)Nc2ccccc2F)c1C#N
3. CCOC(=O)C1(C)CCC(C(C(=O)O)C(=O)O)CC1=O (stereo unspecified)

Reply text:
["34.8 µM", "> 100 µM", "> 100 µM"]

Respectfully, I request TGI for each entry included below.
1. C=C(C#N)C(=O)OCC(CC)CC.C=C(C#N)C(=O)OCC(CC)CC.CS(C)=O.CS(C)=O.Nc1c(N=Nc2ccc(-c3ccc(N=Nc4cc(S(=O)(=O)[O-])c5ccccc5c4N)cc3)cc2)cc(S(=O)(=O)[O-])c2ccccc12.[Pt+2]
2. Cc1ccc(S[C@@](C=O)(NC(=O)OCc2ccccc2)C(F)(F)F)cc1

Reply text:
1: > 58 µM; 2: > 100 µM

Respectfully, I request TGI for each entry included below.
1. COc1ccc2nc(NC(=O)C(=O)CC(=O)c3ccc([N+](=O)[O-])cc3)sc2c1
2. S=C1Cc2c(-c3ccccc3)cc(-c3cccc(Cl)c3)nc2-c2ccccc2N1
3. Nc1nc(=S)c2c(ncn2CCO)[nH]1
4. Cc1cc(C)c(-c2no/c(=N\S(=O)(=O)c3ccc(Cl)cc3)o2)c(C)c1
5. CCOC(=O)c1ccc(N=Nc2ccc(N(CCC#N)CCC#N)cc2C)cc1
6. C[C@H]1CC[C@@]2(OC1)O[C@H]1C[C@H]3[C@@H]4CC[C@@H]5C[C@@H](OC6OC(CO)C(O)C(O)C6OC6OC(CO)C(O)C(O)C6O)CC[C@]5(C)[C@H]4CC[C@]3(C)[C@H]1[C@@H]2C (stereo partly specified)
7. NC1=NC2(COC(c3ccccc3)(c3ccccc3)c3ccccc3)OC(COC(c3ccccc3)(c3ccccc3)c3ccccc3)C(O)C2O1 (stereo unspecified)
8. O=C(c1ccccc1)C1(Br)S(=O)(=O)OCCOS1(=O)=O

Reply text:
["> 100 µM", "25.9 µM", "> 100 µM", "> 100 µM", "> 100 µM", "3.88 µM", "> 100 µM", "> 100 µM"]

Respectfully, I request TGI for each entry included below.
1. COc1cc(C2c3cc4c(cc3OC(NN)C2C)OCO4)cc(OC)c1O (stereo unspecified)
2. COc1ccc(-c2oc3cc(-c4cc5oc(-c6ccc(OC)cc6)c(-c6ccc(OC)cc6)c5cc4OC)c(OC)cc3c2-c2ccc(OC)cc2)cc1

Reply text:
["> 100 µM", "> 100 µM"]

###

For each record, write down the corresponding TGI.
Tested on: SNB-75 CNS
Assay: NCI tumour cell line growth inhibition, 48 h

molecule	assayed target	TGI
Cc1ccc(OCC2OC(n3cnc4c(Cl)nc(Nc5cc(Cl)cc(Cl)c5)nc43)CC2Oc2ccc(C)cc2)cc1 (stereo unspecified)	SNB-75 CNS	> 100 µM
COc1ccc2ccccc2c1C1=NC(C)(C)CO1	SNB-75 CNS	> 100 µM
COC(CN(C)C(=S)Nc1cccc2ccccc12)OC	SNB-75 CNS	> 10 µM
N#Cc1ccccc1OCCOc1ccccc1C#N	SNB-75 CNS	> 100 µM
CC(N)(CC(O)(C(F)(F)Cl)C(F)(F)Cl)C(=O)O (stereo unspecified)	SNB-75 CNS	> 10 µM

Now look at this one.
Inquiry: Endpoint output: TGI of NNc1nnc(CCCCCCCCc2nnc(NN)n2N)n1N . Value?
Reply text: > 100 µM

###

Tested on: MALME-3M melanoma
Assay: NCI tumour cell line growth inhibition, 48 h
reported metric: TGI

See these solved cases before continuing.
compound	TGI
C1CSCCSCCCS[C@@H]2CCCCC2SC1 (stereo not given in full)	> 100 µM
CN(C)c1ccc(-c2cc(-c3ccc(Nc4nc(Nc5ccc(Cl)cc5)nc(Nc5ccc(Cl)cc5)n4)cc3)nc(N)c2C#N)cc1	> 100 µM
Cc1nc2sc3cccc(Cl)c3n2c(=O)c1N=Nc1ccc(Cl)cc1	> 100 µM
CCO/C=C1\SC(=S)N(c2ccc(OCC)cc2)C1=O	> 100 µM
COc1ccc(OC)c2sc(N3C(=O)/C(=C/c4cccc(Oc5ccccc5)c4)N=C3c3ccccc3)nc12	> 100 µM
COC(=O)[C@@H]1CO[C@H](C(C)(C)C)N1C(=O)N1C=CC(=O)C[C@H]1C	> 100 µM
CC[C@H](C)[C@H](NC(=O)[C@H]1CCCCN1C)C(=O)N(C)[C@H](C[C@@H](OC(C)=O)c1nc(C(=O)NC23CC(C(=O)OC)(C2)C3)cs1)C(C)C	> 32.5 µM
COc1ccc(/C(Nc2ccccc2)=C(\CCl)c2ccccc2)cc1OC	> 100 µM
CCOC(=O)C1(C)CCC(C(C(=O)O)C(=O)O)CC1=O (stereo not given)	> 100 µM

Inquiry: Report TGI for CC(N)(CC(O)(C(F)(F)Cl)C(F)(F)Cl)C(=O)O (stereo not given) tested on MALME-3M melanoma.
Reply text: > 10 µM

###

For each record, write down the corresponding TGI.
Test system: SK-MEL-2 melanoma
Assay: NCI tumour cell line growth inhibition, 48 h
Give bare numbers, in µM.

Respectfully, I request TGI for each entry included below.
1. CN=c1sc2c(n1C)C(=O)c1ccccc1C2=O
2. Cc1ccc(S[C@@](C=O)(NC(=O)OCc2ccccc2)C(F)(F)F)cc1
3. C[C@H]1CC[C@@]2(OC1)O[C@H]1C[C@H]3[C@@H]4CC[C@@H]5C[C@@H](OC6OC(CO)C(O)C(O)C6OC6OC(CO)C(O)C(O)C6O)CC[C@]5(C)[C@H]4CC[C@]3(C)[C@H]1[C@@H]2C (some centres not stated)
4. C=C(CN1CCc2[nH]c3ccc(F)cc3c2C1)c1ccc(C(=O)Nc2ccccc2N)cc1
5. CCN(CC)CCNc1ccc2ncn3c4ccc(O)cc4c(=O)c1c23
6. COc1ccc(/C(Nc2ccccc2)=C(\CCl)c2ccccc2)cc1OC

Reply text:
[6.14, 60.8, 4.03, 8.14, 21.4, 79.9]

Respectfully, I request TGI for each entry included below.
1. Oc1c(N2CCCCC2)cc(-c2cc(N3CCCCC3)c(O)c3ccccc23)c2ccccc12
2. COc1cc(-c2nccc3[nH]c(-c4ccc5cc[nH]c5c4)nc23)cc(OC)c1OC

Reply text:
[91.6, 3.06]

###

Test system: SK-MEL-28 melanoma
Assay: NCI tumour cell line growth inhibition, 48 h
For each record, write down the corresponding TGI.

compound	reported metric	meas value
O=C1c2cc3c(cc2-c2c1c1ccc(Cl)cc1c(=O)n2C[C@H](O)CO)OCO3	TGI	1.28 µM

Respectfully, I request TGI for each entry included below.
1. CCN(/C=C1/C(=O)C(c2ccccc2)N(c2ccccc2)C1=O)CC (stereo not drawn)
2. O=C1NC(=O)C2C(=O)NC(=O)C1C2Cc1ccco1 (stereo not drawn)
3. CCN(CC)c1ccc2nc3ccc(=[N+](CC)CC)cc-3oc2c1
4. NS(=O)(=O)c1nnc(NC(=S)NC(=O)Nc2ccc(Cl)c(Cl)c2)s1
5. CCSCC1CC(O)(c2ccccc2)C(c2ccccc2)C(c2ccc(F)cc2)O1 (stereo not drawn)
6. O=C1C2C3C=CC(C2C(=O)N1CO)C1C2C(=O)N(CO)C(=O)C2C31 (stereo not drawn)

Reply text:
1: > 10 µM; 2: > 100 µM; 3: 27.7 µM; 4: > 100 µM; 5: 3.4 µM; 6: > 100 µM

###

Test system: M14 melanoma
Test: NCI tumour cell line growth inhibition, 48 h
For each record, write down the corresponding TGI.

Respectfully, I request TGI for each entry included below.
1. Cc1ccc(S(=O)(=O)NCCCCC(N)C(=O)O)cc1 (stereo unspecified)
2. C(=Nc1nc(SCc2ccccc2)nc2[nH]ncc12)c1cccs1
3. CC1=NN(c2nc(N)nc(C(C)Cl)n2)C(C)(C)C1 (stereo unspecified)
4. COC(CN(C)C(=S)Nc1cccc2ccccc12)OC
5. Cn1c(=O)c2nc3sc4c(n3c2n(C)c1=O)C(=O)c1ccccc1C4=O
6. Cc1cccc2sc(NC(=O)NS(=O)(=O)n3cnc4ccccc43)nc12

Reply text:
1. > 100 µM
2. > 100 µM
3. > 100 µM
4. > 10 µM
5. > 100 µM
6. > 100 µM
